# target_system: human plasma renin (Homo sapiens)
# Construct: from tissue; host or cells: human plasma pool
# Sequence (P00797 67-406): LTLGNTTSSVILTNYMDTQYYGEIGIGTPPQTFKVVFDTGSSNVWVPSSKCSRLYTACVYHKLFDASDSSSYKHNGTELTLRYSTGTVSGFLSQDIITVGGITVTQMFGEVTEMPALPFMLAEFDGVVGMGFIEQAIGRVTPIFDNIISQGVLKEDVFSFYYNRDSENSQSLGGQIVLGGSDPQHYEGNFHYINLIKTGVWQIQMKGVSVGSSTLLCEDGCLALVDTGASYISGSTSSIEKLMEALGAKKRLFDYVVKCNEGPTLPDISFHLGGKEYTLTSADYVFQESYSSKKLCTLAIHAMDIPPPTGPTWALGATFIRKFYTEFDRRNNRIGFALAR
# procedure_summary: Inhibition of human plasma renin activity (PRA) in vitro, angiotensin I released measured by radioimmunoassay
# Assay type: biochemical
# condition_info: human plasma pool rich in renin, 60 minutes at 37° C., phosphate buffer pH 7.4; 5 to 10 doses; read-out: Inhibition of human PRA -log IC50 M pH 7.4 (converted)
Starred links: 1 amine or outer side, 2 acyl side, 3 side chain; linkers in the order of their positions; H or OH if unused. Non-standard residues stand in square brackets, D forms with d. Residues, ends and D or L forms follow the SMILES beside them. *: point of attachment. Propanoyl(3-(3-pyridyl)) = O=C(CCc1cccnc1)*; Propanoyl(3-(4-pyridyl)) = O=C(CCc1ccncc1)*; Sta = CC(C)C[C@H](N)[C@@H](O)CC(=O)O; X3 = O=C(CC1CCCN([*:1])C1)[*:2]; Nle = CCCC[C@H](N)C(=O)O; X1 = O=C(CCCc1ccccn1)*; Boc = CC(C)(C)OC(=O)*
Let's look at some compounds and their measured IC50.
Report the value in µM with no unit label.

{"compound": "CCCC[C@H](NC(=O)[C@H](Cc1ccccc1)NC(=O)CCc1cccnc1)C(=O)N[C@@H](CC(C)C)[C@@H](O)CC(=O)N[C@@H](CC(C)C)C(=O)N[C@@H](Cc1ccccc1)C(=O)OC [SR 43454] ({Propanoyl(3-(3-pyridyl))}-F[Nle][Sta]LF-OMe)", "target_system": "human plasma renin (Homo sapiens)", "reading_unit": "µM", "IC50": 0.0676}

Asked: Output IC50 of CCCC[C@H](NC(=O)[C@H](Cc1ccccc1)NC(=O)CCc1ccncc1)C(=O)N[C@@H](CC(C)C)[C@@H](O)CC(=O)N[C@@H](CC(C)C)C(=O)N[C@@H](Cc1ccccc1)C(=O)OC [SR 43633] ({Propanoyl(3-(4-pyridyl))}-F[Nle][Sta]LF-OMe)
Given back: 0.204

Asked: Assign IC50 to the following record: CCCC[C@H](NC(=O)[C@H](Cc1ccccc1)NC(=O)CC1CCCN(C(=O)OC(C)(C)C)C1)C(=O)N[C@@H](CC(C)C)[C@@H](O)CC(=O)N[C@@H](CC(C)C)C(=O)N[C@@H](Cc1ccccc1)C(=O)OC (stereo partly shown) [SR 43519] (Boc-[X3]F[Nle][Sta]LF-OMe)
Given back: 0.174

Asked: Indicate its recorded IC50; the compound in question is CCCC[C@H](NC(=O)[C@H](Cc1ccccc1)NC(=O)CCCc1ccccn1)C(=O)N[C@@H](CC(C)C)[C@@H](O)CC(=O)N[C@@H](CC(C)C)C(=O)N[C@@H](Cc1ccccc1)C(=O)OC [SR 43484] (X1-F[Nle][Sta]LF-OMe)
Given back: 0.1

====

Examples of molecules with documented IC50 follow.
# target_system: human plasma renin (Homo sapiens, UniProt P00797)
# Construct: from tissue; host or cells: human plasma pool
# procedure_summary: Inhibition of human plasma renin activity (PRA) in vitro, angiotensin I released measured by radioimmunoassay
# Assay type: biochemical
# condition_info: human plasma pool rich in renin, 60 minutes at 37° C., phosphate buffer pH 7.4; 5 to 10 doses; read-out: Inhibition of human PRA -log IC50 M pH 7.4 (converted)
Non-standard residues stand in square brackets, D forms with d. Residues, ends and D or L forms follow the SMILES beside them. *: point of attachment. Sta = CC(C)C[C@H](N)[C@@H](O)CC(=O)O; Acetyl(4-pyridyl) = O=C(Cc1ccncc1)*; X7 = O=C(CCC(O)c1cccnc1)*; Nle = CCCC[C@H](N)C(=O)O
State the answer as a number, implicitly in nM.

{"molecule": "CCCC[C@H](NC(=O)[C@H](Cc1ccccc1)NC(=O)Cc1ccncc1)C(=O)N[C@@H](CC(C)C)[C@@H](O)CC(=O)N[C@@H](CC(C)C)C(=O)N[C@@H](Cc1ccccc1)C(=O)OC [SR 43781] ({Acetyl(4-pyridyl)}-F[Nle][Sta]LF-OMe)", "target_system": "human plasma renin (Homo sapiens, UniProt P00797)", "observed": 132}

Here is another molecule to look at.
Asked: Quick one: give measured IC50 for CCCC[C@H](NC(=O)[C@H](Cc1ccccc1)NC(=O)CCC(O)c1cccnc1)C(=O)N[C@@H](CC(C)C)[C@@H](O)CC(=O)N[C@@H](CC(C)C)C(=O)N[C@@H](Cc1ccccc1)C(=O)OC (some centres unmarked) [SR 43123] (X7-F[Nle][Sta]LF-OMe)
Given back: 81.3

====

# target_system: human plasma renin (Homo sapiens)
# Construct: from tissue; host or cells: human plasma pool
# Sequence (P00797 67-406): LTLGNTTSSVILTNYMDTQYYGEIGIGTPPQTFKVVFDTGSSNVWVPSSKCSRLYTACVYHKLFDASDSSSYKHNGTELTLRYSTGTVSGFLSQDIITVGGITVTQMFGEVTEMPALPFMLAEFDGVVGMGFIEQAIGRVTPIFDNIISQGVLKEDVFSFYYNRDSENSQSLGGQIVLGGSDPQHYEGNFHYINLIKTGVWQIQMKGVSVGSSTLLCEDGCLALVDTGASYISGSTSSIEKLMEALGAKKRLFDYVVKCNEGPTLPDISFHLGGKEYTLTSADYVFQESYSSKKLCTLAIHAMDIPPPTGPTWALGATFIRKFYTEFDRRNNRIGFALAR
# procedure_summary: Inhibition of human plasma renin activity (PRA) in vitro, angiotensin I released measured by radioimmunoassay
# Type: biochemical
# condition_info: human plasma pool rich in renin, 60 minutes at 37° C., phosphate buffer pH 7.4; 5 to 10 doses; read-out: Inhibition of human PRA -log IC50 M pH 7.4 (converted)
Non-standard residues stand in square brackets, D forms with d. Residues, ends and D or L forms follow the SMILES beside them. *: point of attachment. Acetyl(pyridin-2-yl) = O=C(Cc1ccccn1)*; Sta = CC(C)C[C@H](N)[C@@H](O)CC(=O)O; X2 = O=C(CCC(=O)*)c1ccccn1; X6 = O=C(CCC(=O)*)c1cccnc1; X5 = O=C(CCC(O)c1ccccn1)*; Nle = CCCC[C@H](N)C(=O)O; X8 = O=C(CCCc1cccnc1)*
Could you mark each record True if its IC50 falls strictly under 80 nM, and False if it equals or exceeds it?

{"compound": "CCCC[C@H](NC(=O)[C@H](Cc1ccccc1)NC(=O)CCCc1cccnc1)C(=O)N[C@@H](CC(C)C)[C@@H](O)CC(=O)N[C@@H](CC(C)C)C(=O)N[C@@H](Cc1ccccc1)C(=O)OC [SR 43782] (X8-F[Nle][Sta]LF-OMe)", "answer_label": "True"}
{"compound": "CCCC[C@H](NC(=O)[C@H](Cc1ccccc1)NC(=O)Cc1ccccn1)C(=O)N[C@@H](CC(C)C)[C@@H](O)CC(=O)N[C@@H](CC(C)C)C(=O)N[C@@H](Cc1ccccc1)C(=O)OC [SR 43314] ({Acetyl(pyridin-2-yl)}-F[Nle][Sta]LF-OMe)", "answer_label": "False"}
{"compound": "CCCC[C@H](NC(=O)[C@H](Cc1ccccc1)NC(=O)CCC(O)c1ccccn1)C(=O)N[C@@H](CC(C)C)[C@@H](O)CC(=O)N[C@@H](CC(C)C)C(=O)N[C@@H](Cc1ccccc1)C(=O)OC (stereo partly shown) [SR 42991] (X5-F[Nle][Sta]LF-OMe)", "answer_label": "True"}
{"compound": "CCCC[C@H](NC(=O)[C@H](Cc1ccccc1)NC(=O)CCC(=O)c1ccccn1)C(=O)N[C@@H](CC(C)C)[C@@H](O)CC(=O)N[C@@H](CC(C)C)C(=O)N[C@@H](Cc1ccccc1)C(=O)OC [SR 42793] (X2-F[Nle][Sta]LF-OMe)", "answer_label": "False"}

Asked: Say whether its IC50 is strictly beneath 80 nM. Entry: CCCC[C@H](NC(=O)[C@H](Cc1ccccc1)NC(=O)CCC(=O)c1cccnc1)C(=O)N[C@@H](CC(C)C)[C@@H](O)CC(=O)N[C@@H](CC(C)C)C(=O)N[C@@H](Cc1ccccc1)C(=O)OC [SR 43108] (X6-F[Nle][Sta]LF-OMe)
Given back: False
